# Experimental target: Tyrosine-protein kinase JAK1 (Homo sapiens)
# Sequence (P23458 whole entry, the tested form may be a part): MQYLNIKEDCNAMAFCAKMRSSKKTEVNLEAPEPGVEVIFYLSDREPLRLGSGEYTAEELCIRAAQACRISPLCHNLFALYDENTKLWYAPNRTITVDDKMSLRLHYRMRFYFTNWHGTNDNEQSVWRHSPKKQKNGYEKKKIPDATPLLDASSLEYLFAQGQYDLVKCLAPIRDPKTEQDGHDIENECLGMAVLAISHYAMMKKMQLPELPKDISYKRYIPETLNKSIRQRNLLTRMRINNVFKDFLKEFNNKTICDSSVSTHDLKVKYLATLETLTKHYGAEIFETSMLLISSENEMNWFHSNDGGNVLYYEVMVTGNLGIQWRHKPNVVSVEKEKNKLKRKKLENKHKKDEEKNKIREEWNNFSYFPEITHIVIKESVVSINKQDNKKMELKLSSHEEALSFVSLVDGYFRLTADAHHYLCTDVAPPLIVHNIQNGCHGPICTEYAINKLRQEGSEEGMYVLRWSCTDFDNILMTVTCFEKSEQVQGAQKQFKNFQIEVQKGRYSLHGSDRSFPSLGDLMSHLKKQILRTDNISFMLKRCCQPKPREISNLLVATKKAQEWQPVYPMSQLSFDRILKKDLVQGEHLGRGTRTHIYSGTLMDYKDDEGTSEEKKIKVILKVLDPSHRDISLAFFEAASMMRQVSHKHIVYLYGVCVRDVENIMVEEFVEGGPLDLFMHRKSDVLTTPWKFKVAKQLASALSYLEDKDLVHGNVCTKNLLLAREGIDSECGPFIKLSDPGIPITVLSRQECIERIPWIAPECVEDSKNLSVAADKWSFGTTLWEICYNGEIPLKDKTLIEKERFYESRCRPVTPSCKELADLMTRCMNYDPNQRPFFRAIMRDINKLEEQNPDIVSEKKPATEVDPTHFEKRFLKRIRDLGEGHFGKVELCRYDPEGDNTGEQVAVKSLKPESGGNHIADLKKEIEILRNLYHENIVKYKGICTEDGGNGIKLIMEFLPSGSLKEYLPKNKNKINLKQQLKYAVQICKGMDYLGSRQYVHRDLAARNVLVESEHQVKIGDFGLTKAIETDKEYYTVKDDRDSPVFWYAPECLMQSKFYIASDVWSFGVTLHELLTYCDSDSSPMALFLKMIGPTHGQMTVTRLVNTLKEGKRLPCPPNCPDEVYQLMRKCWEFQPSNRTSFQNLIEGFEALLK
# Assay text: Binding affinity to recombinant human JAK1 JH2 (553 to 856 residues) pseudokinase domain assessed as inhibition constant by fluorescence polarization assay

Compound	Ki
CO[C@@]1(c2cc(C)cc(-n3cc(C4CC4)c4cnc(NC(C)=O)cc43)n2)CCOC1	> 10 µM

---

# Experimental target: Tyrosine-protein kinase JAK2 (Homo sapiens)
# Sequence (O60674 whole entry, the tested form may be a part): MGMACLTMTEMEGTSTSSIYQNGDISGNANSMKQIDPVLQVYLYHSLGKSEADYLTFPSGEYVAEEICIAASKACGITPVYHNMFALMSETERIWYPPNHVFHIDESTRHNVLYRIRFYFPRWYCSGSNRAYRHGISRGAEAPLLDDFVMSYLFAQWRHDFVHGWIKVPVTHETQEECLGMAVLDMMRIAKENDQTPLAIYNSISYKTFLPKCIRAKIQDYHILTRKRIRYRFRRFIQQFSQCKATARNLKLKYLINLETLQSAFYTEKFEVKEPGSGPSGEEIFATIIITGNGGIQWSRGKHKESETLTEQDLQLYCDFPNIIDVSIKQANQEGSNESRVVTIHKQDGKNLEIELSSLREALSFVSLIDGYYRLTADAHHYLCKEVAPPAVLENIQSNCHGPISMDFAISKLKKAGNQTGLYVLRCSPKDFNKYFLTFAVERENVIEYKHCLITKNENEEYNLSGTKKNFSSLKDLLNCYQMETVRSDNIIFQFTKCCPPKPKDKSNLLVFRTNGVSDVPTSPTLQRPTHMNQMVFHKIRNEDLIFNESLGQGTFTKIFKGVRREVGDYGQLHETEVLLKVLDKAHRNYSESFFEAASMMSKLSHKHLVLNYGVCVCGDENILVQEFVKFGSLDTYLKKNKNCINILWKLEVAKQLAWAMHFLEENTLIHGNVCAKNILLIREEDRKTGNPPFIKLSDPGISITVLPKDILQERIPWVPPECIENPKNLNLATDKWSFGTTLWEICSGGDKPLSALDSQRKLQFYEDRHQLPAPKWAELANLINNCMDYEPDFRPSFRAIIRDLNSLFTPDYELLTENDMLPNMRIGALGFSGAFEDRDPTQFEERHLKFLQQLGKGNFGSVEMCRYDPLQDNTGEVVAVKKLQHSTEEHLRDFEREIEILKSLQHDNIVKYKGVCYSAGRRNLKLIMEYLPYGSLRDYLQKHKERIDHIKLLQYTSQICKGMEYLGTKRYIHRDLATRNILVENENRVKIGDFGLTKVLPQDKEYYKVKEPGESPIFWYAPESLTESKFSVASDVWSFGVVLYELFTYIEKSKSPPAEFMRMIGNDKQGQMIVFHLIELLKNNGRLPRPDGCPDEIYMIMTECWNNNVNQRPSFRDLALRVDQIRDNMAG
# Assay text: Binding affinity to JAK2 […] pseudokinase domain (unknown origin) assessed as dissociation constant by TR-FRET assay

Compound	Kd
CNC(=O)c1cnc2cc1Nc1cc(cc(-c3ccn(C)n3)c1OC)CCOCc1cccc(n1)N2	> 10 µM

---

# Experimental target: Non-receptor tyrosine-protein kinase TYK2 (Homo sapiens)
# Sequence (P29597 whole entry, the tested form may be a part): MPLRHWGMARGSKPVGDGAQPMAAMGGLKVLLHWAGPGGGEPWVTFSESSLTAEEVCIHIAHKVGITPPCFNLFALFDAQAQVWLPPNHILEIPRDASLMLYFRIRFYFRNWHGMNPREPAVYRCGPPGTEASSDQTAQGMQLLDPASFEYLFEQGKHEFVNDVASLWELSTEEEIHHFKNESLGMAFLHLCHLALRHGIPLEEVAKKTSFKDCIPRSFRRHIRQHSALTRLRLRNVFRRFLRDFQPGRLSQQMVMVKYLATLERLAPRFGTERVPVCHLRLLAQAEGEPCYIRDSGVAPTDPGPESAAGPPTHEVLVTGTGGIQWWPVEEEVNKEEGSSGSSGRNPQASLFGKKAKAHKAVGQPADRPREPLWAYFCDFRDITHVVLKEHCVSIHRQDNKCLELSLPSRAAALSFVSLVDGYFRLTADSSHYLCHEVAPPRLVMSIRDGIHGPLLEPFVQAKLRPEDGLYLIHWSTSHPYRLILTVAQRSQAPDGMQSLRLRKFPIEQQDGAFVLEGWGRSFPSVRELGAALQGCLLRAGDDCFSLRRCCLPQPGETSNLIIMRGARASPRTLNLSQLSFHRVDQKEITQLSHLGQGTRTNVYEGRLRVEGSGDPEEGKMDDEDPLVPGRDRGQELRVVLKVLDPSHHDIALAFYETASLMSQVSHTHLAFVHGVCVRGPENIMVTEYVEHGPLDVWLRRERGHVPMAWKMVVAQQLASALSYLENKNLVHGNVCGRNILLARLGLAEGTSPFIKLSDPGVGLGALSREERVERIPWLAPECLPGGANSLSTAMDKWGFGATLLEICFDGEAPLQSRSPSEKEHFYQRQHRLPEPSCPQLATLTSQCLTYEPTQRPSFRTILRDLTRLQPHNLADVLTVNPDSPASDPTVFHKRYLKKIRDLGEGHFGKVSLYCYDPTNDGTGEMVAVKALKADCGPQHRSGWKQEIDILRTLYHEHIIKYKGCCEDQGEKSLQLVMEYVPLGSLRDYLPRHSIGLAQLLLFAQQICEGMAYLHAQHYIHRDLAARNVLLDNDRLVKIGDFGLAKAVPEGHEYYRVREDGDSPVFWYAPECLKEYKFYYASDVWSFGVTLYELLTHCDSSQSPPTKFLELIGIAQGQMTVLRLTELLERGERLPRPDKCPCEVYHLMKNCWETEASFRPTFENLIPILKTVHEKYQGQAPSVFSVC
# Assay text: Inhibition of TYK2 JH2 pseudokinase domain (unknown origin) by TR-FRET assay

Compound	IC50
CNC(=O)c1cnc2cc1Nc1cc(cc(-c3ccn(C)n3)c1OC)CCOCc1cccc(n1)N2	< 1 nM

---

# Experimental target: Non-receptor tyrosine-protein kinase TYK2 (Homo sapiens)
# Assay text: Binding affinity to recombinant human TYK2 JH2 (564 to 876 residues) pseudokinase domain assessed as dissociation constant by fluorescence polarization assay
pKd: −log10 of the molar value.
Recorded metric: pKd

Compound	Obs value
CNc1cc2nn3c(cnc13)C(=O)N[C@H](C)COCc1ccc(OC)c(c1)N2	10.64

---

# Assay text: Inhibition of IL-12 induced IFNgamma production in human NK92 cells
# Format: functional, cell-based, NK-92
pIC50: −log10 of the molar value.
Recorded metric: pIC50

Compound	Obs value
CC(=O)Nc1cc(Nc2cccc(S(C)(=O)=O)n2)c(-c2ccccn2)cn1	9.61
NC(=O)c1nnc(-c2c(F)cccc2F)cc1Nc1ccc(N2CCOCC2)cn1	7.10
